Measured values drawn from ChEMBL document CHEMBL4346672 for this set.

Tested on: Klebsiella pneumoniae
Experiment: Inhibition of beta lactamase CMY-2 in Klebsiella pneumoniae 78 assessed as potentiation of ceftazidime-induced antibacterial activity by measuring ceftazidime MIC at 16 mg/L incubated for 18 hrs by broth dilution method (reference value: >[…] mg/L)
property_label: MIC

>>> reading("C[Si]1(C)OB(O)c2cc3c(c(F)c21)COB3O")
"> 64 µg/mL"
>>> reading("C[Si]1(C)OB(O)c2ccc(B(O)O)cc21")
"64 µg/mL"
>>> reading("OB(O)c1ccccc1")
"32 µg/mL"
>>> reading("C[Si]1(C)OB(O)c2c(F)c(F)c(F)c(F)c21")
"64 µg/mL"
>>> reading("C[Si]1(C)OB(O)c2c(F)c3c(c(F)c21)B(O)OC3")
"> 64 µg/mL"
>>> reading("C[Si]1(C)OB(O)c2ccc(F)c(F)c21")
"64 µg/mL"
